biological target: Solute carrier family 2, facilitated glucose transporter member 1 (Homo sapiens) (UniProt P11166); experiment: ST_JUDE_LEISH: Cytotoxicity at 2uM final concentration against transgenic Leishmania Mexicana promastigotes LmGLUT1 that are glucose transport deficient and complemented with the human glucose transporter GLUT1. Activity is measured by DNA content using SYBR green in vitro; type: functional
Sequence (P11166 whole entry): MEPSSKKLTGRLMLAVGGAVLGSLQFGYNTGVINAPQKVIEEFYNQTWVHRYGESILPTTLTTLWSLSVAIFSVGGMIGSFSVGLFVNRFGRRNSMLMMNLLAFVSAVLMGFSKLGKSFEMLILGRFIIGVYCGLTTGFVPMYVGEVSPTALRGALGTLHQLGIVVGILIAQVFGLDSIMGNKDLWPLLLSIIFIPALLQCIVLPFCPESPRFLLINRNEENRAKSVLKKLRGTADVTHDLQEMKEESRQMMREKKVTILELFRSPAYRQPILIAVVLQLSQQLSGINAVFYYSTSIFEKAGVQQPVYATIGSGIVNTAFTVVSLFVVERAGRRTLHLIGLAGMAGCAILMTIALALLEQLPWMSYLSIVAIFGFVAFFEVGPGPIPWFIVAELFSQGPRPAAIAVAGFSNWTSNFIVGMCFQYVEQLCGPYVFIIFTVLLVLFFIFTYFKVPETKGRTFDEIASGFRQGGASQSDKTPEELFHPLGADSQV
I'd appreciate it if you could supply inhibition values for the items below.
Form entry: value (%) — number only.

I would be grateful if you could share the reported inhibition for O=C(Nc1ccc(OC2CCN(Cc3ccc(F)cc3)CC2)c(Cl)c1)c1ccc(F)cc1 . 2.58

inhibition lookup needed for O=C(NCc1ccccc1)c1nn(CCCN2CCC(N3CCCC3)CC2)cc1-c1ccc(Cl)c(Cl)c1 , thanks. 4.94

May I ask what inhibition has been recorded for CCCCNCc1cc(Cl)c2ccccc2c1O ? 7.17

Fill in: inhibition of CCc1ccccc1-c1csc(C(=O)NCC2CCN(Cc3ccc(C(C)(C)C)cc3)C2)c1 (centres undefined) is ___ 6.04

What measured inhibition goes with COc1cccc(-c2cnc(N)c(-c3nc4cc(Cl)c(F)cc4[nH]3)c2)c1 ? 15.6

Which inhibition is listed for O=[N+]([O-])c1ccc2ncnc(Nc3ccc(F)c(Cl)c3)c2c1 ? 2.27

Suppose we examine the compound COc1cc(Cc2cnc(N)nc2N)ccc1OCc1cccc(Oc2ccccc2)c1 ; what inhibition value has been reported? 2.15

If you can, please state the reported inhibition value of N#Cc1cccc(C(=O)Nc2cccc(-c3cccc(CN4CCNCC4)c3)c2)c1 . 4.13

Which inhibition value is on record for Cc1cccc2nc(-c3cccc(-c4cccc(CN5CCN(c6ccncc6)CC5)c4)c3)[nH]c12 ? 1.34

Requested read-out: inhibition. Entry: Cc1nnsc1C(=O)Nc1cccc(-c2cccc(-c3nc4cc(C(F)(F)F)ccc4[nH]3)c2)c1 6.42

GET /values?readout=inhibition&item= CC1(C)NC(N)=NC(=N)N1OCCCOc1cccc2ccccc12 54.8

Requested field: inhibition. Item: CCNc1cc(C(=O)N[C@@H](Cc2ccccc2Cl)[C@H](O)CNC2CCCCC2)cc(N2CCCCS2(=O)=O)c1 0.03

Return reported inhibition; argument: CCC[C@@H]([C@@H](CC(C)C)C(=O)N[C@@H](CCCCNC(=O)c1ccccn1)C(=O)Nc1nccs1)N(O)C=O 4.93

Which inhibition reading was recorded for the compound O=S(=O)(NCCN1CCCC1)c1ccc(-c2ccc(CNCc3ccccc3)cc2)cc1 ? 2.85

Report inhibition for COc1cc(NC(=O)N2CCOC(CCN3CCC(c4ccccc4)CC3)(c3ccc(Cl)c(Cl)c3)C2)cc(OC)c1 (centres undefined) please. 0.76

Any idea what inhibition was measured for Cn1nc(-c2ccc(S(=O)(=O)N3CCC(CCN4CCC(c5c[nH]c6ccccc56)CC4)CC3)s2)cc1C(F)(F)F ? 1.21

State the recorded inhibition for this entry: OCCN1CCN(Cc2ccc(-c3cccc(-c4nc5cc(F)ccc5[nH]4)c3)cc2)CC1 2.82

For the compound shown here, COc1ccccc1CCNc1nc(C)cc(N[C@@H](Cc2ccccc2)C(=O)NCCc2ccccc2)n1 , give the reported inhibition. 7.15

// inhibition lookup, key: Cc1ccc2c(OCCN3CCC(Cc4ccc5c(c4)NC(=O)CO5)CC3)cc(F)cc2n1 3.49
